system: α-glucosidase; test: In vitro α-glucosidase inhibition assay (pNPG substrate); assay type: biochemical; settings: percent inhibition at a concentration of 50 μM; mean ± SD (n = 3)
Marks after values point to notes of the source that are not given here.
property-name: Inhibitory Rate (%)

For α-glucosidase, provide Inhibitory Rate (%) of COC(=O)C1OC(OC2CCC3(C)C(CCC4(C)C3CC=C3C5CC(C)(C)CCC5(C(=O)O)CCC34C)C2(C)C)C(O)C(OC2OCC(O)C(O)C2O)C1O (stereo not drawn) please.
29.62 ± 2.26 ^i %

For α-glucosidase, provide Inhibitory Rate (%) of CC1(C)CCC2(C(=O)O)CCC3(C)C(=CCC4C5(C)CCC(OC6OC(C(=O)O)C(O)C(OC7OCC(O)C(O)C7O)C6O)C(C)(C(=O)O)C5CCC43C)C2C1 (stereo not drawn) please.
13.71 ± 0.54 ^j %

For α-glucosidase, provide Inhibitory Rate (%) of CC1(C)C=C2C3CCC4[C@@]5(C)CC[C@H](O[C@@H]6O[C@H](CO)[C@@H](O)[C@H](O)[C@H]6O)C(C)(C)C5CC[C@@]4(C)[C@]3(C)CC[C@@]2(C(=O)O)CC1 (stereo partly drawn) please.
17.49 ± 4.45 ^j %

Data origin: paper PMC9916857
